- tested_target: FGF-1 (Homo sapiens, UniProt P05230)
- Construct: purchased Peprotech 100-17A
- Sequence (P05230 whole entry): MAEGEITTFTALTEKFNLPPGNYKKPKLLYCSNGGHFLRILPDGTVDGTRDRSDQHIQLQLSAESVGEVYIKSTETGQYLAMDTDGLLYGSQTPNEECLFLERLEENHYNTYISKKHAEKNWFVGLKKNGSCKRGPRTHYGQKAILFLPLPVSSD
- method_summary: FGF-1 induced sprouting of HUVEC, spheroid-based cellular angiogenesis assay
- Assay type: cell-based
- condition: FGF-1 25 ng/mL preincubated with compound, 24 h
- From the text: Aim of this in vitro method is to assess compounds effects on FGF-2, FGF-1, or VEGF-A induced sprouting of human umbilical vein endothelial cells (HUVEC) in the spheroid-based cellular angiogenesis assay. […] IC50 values determined for the tested compounds are expressed in microM [μM] and the values for the inhibition of FGF-1, FGF2 and VEGF-A induced growth (sprouting) are listed after each compound in the examples after chemical characterization. […]
Satisfied if IC50 is below 30 µM. Not satisfied if not; exact matches included in Not satisfied.

- compound: "O=C(O)c1cc(O)c(C(=O)NCc2ccccc2C(=O)O)cc1O [Ia-053a]"
  class_name: "Not satisfied"
- compound: "O=C(O)c1cc(NC(=O)c2cc(O)c(C(=O)O)cc2O)ccc1O [Ia-004a]"
  class_name: "Not satisfied"
- compound: "O=C(O)c1cc(O)c(C(=O)NC(Cc2ccc(O)c(O)c2)C(=O)O)cc1O (stereo not drawn) [Ia-035a-3]"
  class_name: "Not satisfied"

A record lists O=C(O)c1cc(O)c(C(=O)NCCc2ccc(O)c(O)c2)cc1O [Ia-035a-2] . Is its IC50 below 30 µM?
Satisfied

Find out if reported IC50 for O=C(O)c1ccc(C(=O)O)c(NC(=O)c2cc(O)c(C(=O)O)cc2O)c1 [Ia-012a] is less than 30 µM
Not satisfied

IC50 strictly < 30 µM for this compound? CCOC(=O)c1cc(O)cc(C(=O)Nc2ccccc2-c2nnn[nH]2)c1O [IIa-001aTz-E1]
Not satisfied

====

- method_summary: Prodrug stability in mouse plasma
- Type: in vitro ADME
parameter: Stability in mouse plasma (in words)

- compound: "CC(OC(=O)c1cc(O)cc(CS(=O)(=O)Cc2cc(O)cc(C(=O)OC(C)OC(=O)C(C)(C)C)c2O)c1O)OC(=O)C(C)(C)C (stereo not drawn) [IVc-059a-pive2]"
  parameter: "Stability in mouse plasma (in words)"
  result: "hydrolyzed rapidly"
- compound: "O=C(O)c1cc(O)cc(CS(=O)(=O)Cc2cc(O)cc(C(=O)OCCN3CCOCC3)c2O)c1O [IVc-059a-mpe1]"
  parameter: "Stability in mouse plasma (in words)"
  result: "stable up to 60 min"
- compound: "CC(C)(C)C(=O)OCOC(=O)c1cc(O)cc(CS(=O)(=O)Cc2cc(O)cc(C(=O)OCOC(=O)C(C)(C)C)c2O)c1O [IVc-059a-pivm2]"
  parameter: "Stability in mouse plasma (in words)"
  result: "hydrolyzed rapidly"
- compound: "CC(C)(C)C(=O)OCOC(=O)c1cc(O)cc(CS(=O)(=O)Cc2cc(O)cc(C(=O)O)c2O)c1O [IVc-059a-pivm1]"
  parameter: "Stability in mouse plasma (in words)"
  result: "hydrolyzed rapidly"

Read the next record carefully.
The compound listed as O=C(OCCN1CCOCC1)c1cc(O)cc(CS(=O)(=O)Cc2cc(O)cc(C(=O)OCCN3CCOCC3)c2O)c1O [IVc-059a-mpe2] shows Stability in mouse plasma (in words) equal to stable up to 60 min

====

The entries below come with measured half-life values attached.
- method_summary: Prodrug stability in mouse plasma
- Type: in vitro ADME
- condition: read-out: T1/2 (mouse plasma)
Note: unit min is implicit; provide only the numeric part.

- compound: "CC(C)(C)C(=O)OCOC(=O)c1cc(O)cc(CS(=O)(=O)Cc2cc(O)cc(C(=O)O)c2O)c1O [IVc-059a-pivm1]"
  result: 6.7
- compound: "CC(OC(=O)c1cc(NC(=O)c2cc(O)c(C(=O)Nc3ccc(O)c(C(=O)O)c3)cc2O)ccc1O)OC(=O)C(C)(C)C (stereo not shown) [Ic-007a-pive1]"
  result: 44.6
- compound: "CC(C)(C)C(=O)OCOC(=O)c1cc(O)cc(CS(=O)(=O)Cc2cc(O)cc(C(=O)OCOC(=O)C(C)(C)C)c2O)c1O [IVc-059a-pivm2]"
  result: 14.1

Then there is this compound:
Short answer for CC(OC(=O)c1cc(NC(=O)c2cc(O)c(C(=O)Nc3ccc(O)c(C(=O)OC(C)OC(=O)C(C)(C)C)c3)cc2O)ccc1O)OC(=O)C(C)(C)C (stereo not shown) [Ic-007a-pive2] : half-life was 62.2

====

- Test system: IL-17F
- method_summary: Cytokine release after LPS induction on human whole blood: IL-17F
- Type: cell-based
- condition: human whole blood, inhibition of LPS induced inflammation; read-out: IC50 IL-17F
List of pIC50 values.
Keep it numeric: pIC50 is minus log10 of the concentration in mol/L.

Take a look at these entries with their results.
- compound: "O=C(O)c1ccccc1CNC(=O)c1cc(O)cc(C(=O)O)c1O [IIa-053a]"
  tested_target: "IL-17F"
  pIC50: 4.54
- compound: "COC(=O)c1cc(OC(C)=O)cc(CS(=O)(=O)Cc2cc(OC(C)=O)cc(C(=O)OC)c2OC(C)=O)c1OC(C)=O [IVc-059a-E2-A4]"
  tested_target: "IL-17F"
  pIC50: 4.59
- compound: "O=C(O)c1cc(NC(=O)c2cc(O)c(C(=O)Nc3ccc(O)c(C(=O)O)c3)cc2O)ccc1O [Ic-007a]"
  tested_target: "IL-17F"
  pIC50: 4.64

Looking up O=C(O)c1cc(O)c(C(=O)Nc2ccccc2C(=O)O)cc1O [Ia-001a] , I see its pIC50 listed as 4.83

For record O=C(O)c1cc(O)cc(CSCc2cc(O)cc(C(=O)O)c2O)c1O [IVc-058a] the listed pIC50 is 4.06

Entry O=C(O)c1cc(O)c(CN(Cc2cc(O)c(C(=O)O)cc2O)Cc2cc(O)c(C(=O)O)cc2O)cc1O [IIIc-061a] , pIC50 reported as 6.49

Reported pIC50 for O=C(O)Cc1cc(O)c(C(=O)Nc2ccccc2-c2nnn[nH]2)cc1O was 6.80

So, O=C(O)c1cc(NC(=O)c2cc(O)c(C(=O)O)cc2O)cc(C(=O)O)c1 [Ia-015a] ? Its pIC50 was 6.82

So, O=C(O)c1cc(O)c(C(=O)Nc2ccc(-c3nnn[nH]3)cc2)cc1O [Ia-003a-Tz] ? Its pIC50 was 4.08

The compound listed as O=C(O)c1cc(O)c(C(=O)Nc2ccccc2S(=O)(=O)O)cc1O [Ia-001c] shows pIC50 equal to 4.05

Reported pIC50 for O=C(O)c1cc(O)ccc1NC(=O)c1cc(O)cc(C(=O)Nc2ccc(O)cc2C(=O)O)c1O [IIc-009a] was 6.89

Entry O=C(O)c1cc(NC(=O)c2cc(O)cc(C(=O)Nc3ccc(O)c(C(=O)O)c3)c2O)ccc1O [IIc-007a] — recorded pIC50 = 6.59

Query O=C(O)c1cc(O)cc(CS(=O)(=O)Cc2cc(O)cc(C(=O)O)c2O)c1O [IVc-059a] yields pIC50 of 4.00

The compound listed as CC(=O)N(Cc1cc(O)c(C(=O)O)cc1O)Cc1cc(O)c(C(=O)O)cc1O [IIIc-057a] has a reported pIC50 of 5.30

====

- Tested on: acute pancreatitis murine model
- method_summary: Caerulein-induced acute pancreatitis murine model
- Type: in vivo, Balb/c mice
- condition: 1st experiment; caerulein induced; 15 mg/kg IV, Ib-010a and IVc-059a 150 mg/kg PO, Pirfenidone 40 mg/kg IV
parameter: Mean terminal BW (% of initial)

Reference set, count: 2
- molecule: "Cc1ccc(=O)n(-c2ccccc2)c1 [pirfenidone, reference compound]"
  Mean terminal BW (% of initial): "97.6 % of initial"
- molecule: "O=C(O)c1cc(O)c(CN(Cc2cc(O)c(C(=O)O)cc2O)Cc2cc(O)c(C(=O)O)cc2O)cc1O [IIIc-061a]"
  Mean terminal BW (% of initial): "91.4 % of initial"

Sample O=C(O)c1cc(NC(=O)c2cc(O)c(C(=O)Nc3ccccc3-c3nnn[nH]3)cc2O)ccc1O [Ic-001a-Tz/004a] , system: acute pancreatitis murine model. Its Mean terminal BW (% of initial) is 93.5 % of initial

Bench note, acute pancreatitis murine model: entry O=C(O)c1cc(O)c(C(=O)Nc2ccccc2C(=O)O)cc1O [Ia-001a] , its Mean terminal BW (% of initial) = 90.3 % of initial

Let me check: O=C(O)c1cc(NC(=O)c2cc(O)c(C(=O)Nc3ccc(O)c(C(=O)O)c3)cc2O)ccc1O [Ic-007a] , system acute pancreatitis murine model, measured Mean terminal BW (% of initial) is 91.2 % of initial

Item O=C(O)c1cc(O)cc(CS(=O)(=O)Cc2cc(O)cc(C(=O)O)c2O)c1O [IVc-059a] ; assay system acute pancreatitis murine model; Mean terminal BW (% of initial) reported as 93.3 % of initial

Summary line: O=C(O)c1cc(O)c(C(=O)Nc2ccccc2-c2nnn[nH]2)cc1O [Ia-001a-Tz] , acute pancreatitis murine model, reported Mean terminal BW (% of initial) = 89.1 % of initial

Bench note, acute pancreatitis murine model: O=C(O)c1cc(NC(=O)c2cc(O)c(C(=O)O)cc2O)cc(NC(=O)c2cc(O)c(C(=O)O)cc2O)c1 [Ib-010a] , Mean terminal BW (% of initial) reads 91 % of initial
